Assay: chemical genetic growth profiling, strain panel (AID 1159580);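 note: tested at 20 µM; growth read once vehicle control cultures reached saturation at 30 °C; 1 = growth at the plate median or of vehicle wells; lower values mean less growth of the strain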
Conditions: S. cerevisiae deletion strains, growth OD, locus YKL048C, strain ELM1, hits give low values
The whole screen tested about 5,500 compounds, of which about 2,000 (36%) were called active. Another 18% or so got no clear call; they are omitted. This is one part of the list.
For each of the compounds below, state its normalized growth.
Write the number on its own, no unit after it.

Please fill in: normalized growth reported for "COC(=S)Nc1cc(Cl)cc(Cl)c1" = 0.816

Please fill in: normalized growth reported for COc1cc(C2CC(=S)Nc3ccccc3S2)cc(OC)c1OC (stereo not drawn) = 0.975

Please fill in: normalized growth reported for "O=C1C(NCc2ccccc2)=C(NCc2ccccc2)C(=O)c2ccccc21" = 0.829

Please fill in: normalized growth reported for CCOC(=O)C(O)(c1ccc(NC(=O)c2ccc(Cl)c(Cl)c2)cc1)C(F)(F)F (stereo not drawn) = 0.953

Please fill in: normalized growth reported for "O=C(/C=C/c1ccc(Cl)cc1)Nc1cccc(Cl)c1" = 0.895

Please fill in: normalized growth reported for "COc1cc(C2SCCS2)cc(Br)c1OC(=O)NC(=O)c1c(Cl)cccc1Cl" = 0.951

Please fill in: normalized growth reported for CCOC(=O)C(NC(=O)c1cccc(Cl)c1)(Nc1nc2ccccc2s1)C(F)(F)F (stereo not drawn) = 0.937

Please fill in: normalized growth reported for "S=C(NCCc1csc2ccccc12)Nc1ccc(Cl)cc1" = 0.914

---

Assay: chemical genetic growth profiling, strain panel (AID 1159580)
Conditions: S. cerevisiae deletion strains, growth OD, locus YPL055C, strain LGE1
About 2,000 (36%) of roughly 5,500 compounds were called active. Roughly 18% stayed inconclusive and do not appear here. Rule as the data show it: active = normalized growth mostly below about 0.91 (no sharp cut-off); inconclusive = no clear call, values can overlap the other calls; inactive = mostly above about 0.92. The list shows a part of the results.
Outcome field: choose from t (active), f (inactive)

Q) Lab log entry: "Cc1cc(NS(=O)(=O)c2ccc(NC(=O)c3ccccc3)cc2)no1" — outcome as called in the assay?
A) f

Q) Lab log entry: CCCC(=O)Nc1ccc(OCC(O)CNC(C)C)c(C(C)=O)c1 (stereo not given) — outcome as called in the assay?
A) f

Q) Lab log entry: "CCCCN(CC)c1c([N+](=O)[O-])cc(C(F)(F)F)cc1[N+](=O)[O-]" — outcome as called in the assay?
A) f

Q) Lab log entry: "O=c1cc(-c2ccccc2)[nH]c2nc(Cl)ccc12" — outcome as called in the assay?
A) f

Q) Lab log entry: "O=[N+]([O-])c1cc(C(F)(F)F)cc([N+](=O)[O-])c1Oc1ccc(Cl)c(Cl)c1" — outcome as called in the assay?
A) t

---

Assay: chemical genetic growth profiling, strain panel (AID 1159580);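 note: tested at 20 µM; growth read once vehicle control cultures reached saturation at 30 °C; 1 = growth at the plate median or of vehicle wells; lower values mean less growth of the strain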
Conditions: S. cerevisiae deletion strains, growth OD, locus YMR205C, strain PFK2
The campaign covered roughly 5,500 compounds. About 2,000 (36%) were called active. Another 18% or so got no clear call; they are omitted. No stated cut-off is given here; in the data, active means normalized growth mostly below about 0.91 (no sharp cut-off); inconclusive means no clear call, values can overlap the other calls; inactive means mostly above about 0.92. The list shows a part of the results.
Outcome field: choose from active, inactive

Q) Lab log entry: CCCC(=O)Nc1ccc(OCC(O)CNC(C)C)c(C(C)=O)c1 (stereo not given) — outcome as called in the assay?
A) inactive

Q) Lab log entry: "C=CC[C@@H]1/C=C(\C)C[C@H](C)C[C@H](OC)[C@H]2O[C@@](O)(C(=O)C(=O)N3CCCC[C@H]3C(=O)O[C@H](/C(C)=C/[C@@H]3CC[C@@H](O)[C@H](OC)C3)[C@H](C)[C@@H](O)CC1=O)[C@H](C)C[C@@H]2OC" — outcome as called in the assay?
A) active

Q) Lab log entry: "O=C1C=C(O)c2ccccc2C1=O" — outcome as called in the assay?
A) inactive

Q) Lab log entry: "CC1=C(C(=O)O)N2C(=O)[C@@H](NC(=O)[C@@H](N)c3ccc(O)cc3)[C@H]2SC1" — outcome as called in the assay?
A) inactive

Q) Lab log entry: "NS(=O)(=O)c1cc2c(cc1Cl)NCNS2(=O)=O" — outcome as called in the assay?
A) inactive

Q) Lab log entry: "O=c1c(O)c(-c2ccccc2)oc2cccc(O)c12" — outcome as called in the assay?
A) active

Q) Lab log entry: "CCCc1ncc(C[n+]2ccccc2C)c(N)n1" — outcome as called in the assay?
A) inactive

Q) Lab log entry: "CON" — outcome as called in the assay?
A) inactive

Q) Lab log entry: "O=C1c2ccccc2C(=O)c2ccccc21" — outcome as called in the assay?
A) inactive

Q) Lab log entry: "O=C1c2cccc(O)c2C(=O)c2c(O)cccc21" — outcome as called in the assay?
A) inactive

Q) Lab log entry: "CC(=O)c1ccc[nH]1" — outcome as called in the assay?
A) inactive

Q) Lab log entry: "Cn1c(=O)c2c(ncn2CCO)n(C)c1=O" — outcome as called in the assay?
A) inactive

Q) Lab log entry: Cc1cc2nc3c(=O)[nH]c(=O)nc-3n(CC(O)C(O)C(O)CO)c2cc1C (stereo not given) — outcome as called in the assay?
A) inactive

Q) Lab log entry: Oc1cc2c(cc1O)C(c1ccccc1)CNCC2 (stereo not given) — outcome as called in the assay?
A) inactive

Q) Lab log entry: COCC1=C(C(=O)OC(C)OC(=O)OC(C)C)N2C(=O)[C@@H](NC(=O)/C(=N\OC)c3csc(N)n3)[C@H]2SC1 (stereo not given in full) — outcome as called in the assay?
A) inactive

---

Experiment: chemical genetic growth profiling, strain panel (AID 1159580);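 note: tested at 20 µM; growth read once vehicle control cultures reached saturation at 30 °C; 1 = growth at the plate median or of vehicle wells; lower values mean less growth of the strain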
Conditions: S. cerevisiae deletion strains, growth OD, locus YFL029C, strain CAK1, hits give low values
Screen size: about 5,500 compounds; about 2,000 (36%) were called active. About 18% were inconclusive and are not listed. Some of the results follow.
For each of the compounds below, state its normalized growth.
Write the number on its own, no unit after it.

Please fill in: normalized growth reported for "CC(C)Sc1c(Cl)cccc1NC(=O)Nc1cccc(C(F)(F)F)c1" = 0.976

Please fill in: normalized growth reported for "CC(C)Sc1c(Cl)cccc1NC(=O)Nc1ccccc1" = 0.964

Please fill in: normalized growth reported for "COC(=S)Nc1cc(Cl)cc(Cl)c1" = 0.919

---

Assay: chemical genetic growth profiling, strain panel (AID 1159580);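 note: tested at 20 µM; growth read once vehicle control cultures reached saturation at 30 °C; 1 = growth at the plate median or of vehicle wells; lower values mean less growth of the strain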
Settings: S. cerevisiae deletion strains, growth OD, locus YKL160W, strain elf1
The whole screen tested about 5,500 compounds, of which about 2,000 (36%) were called active. Inconclusive results (about 18%) are left out. No stated cut-off is given here; in the data, active means normalized growth mostly below about 0.91 (no sharp cut-off); inconclusive means no clear call, values can overlap the other calls; inactive means mostly above about 0.92. The list shows a part of the results.
Outcome field: choose from y for active, n for inactive

Q) Lab log entry: "Cn1c(=O)c2c(ncn2C)n(C)c1=O" — outcome as called in the assay?
A) n

Q) Lab log entry: COC(=O)CC1C(C)(C(=O)c2ccoc2)CC2OCC34C(CC(=O)OC)C5(C)CC36OC3(C)OC1(C(OC(C)=O)C6(OC(C)=O)C5OC(=O)C(C)C)C24O3 (stereo not drawn) — outcome as called in the assay?
A) n

Q) Lab log entry: "COc1ccc(CC(=O)c2ccc(O)cc2O)cc1" — outcome as called in the assay?
A) n

Q) Lab log entry: "CNC(=O)N(C)c1nnc(C(C)(C)C)s1" — outcome as called in the assay?
A) n

Q) Lab log entry: "O=c1c(O)cccc2cc(O)c(O)c(O)c12" — outcome as called in the assay?
A) y

Q) Lab log entry: "CC(C)N1C(=O)c2ccccc2NS1(=O)=O" — outcome as called in the assay?
A) n

Q) Lab log entry: "O=C1C=CC(=O)c2c(O)c(Cl)c(Cl)c(O)c21" — outcome as called in the assay?
A) y

Q) Lab log entry: "COc1ccc(NS(=O)(=O)c2ccc(N)cc2)nn1" — outcome as called in the assay?
A) n

Q) Lab log entry: "O=C(O)CC[N+](=O)[O-]" — outcome as called in the assay?
A) n

Q) Lab log entry: CC(=O)Oc1c(C)c(C)c2c(c1C)CCC(C)(CCCC(C)CCCC(C)CCCC(C)C)O2 (stereo not drawn) — outcome as called in the assay?
A) n

Q) Lab log entry: "Cn1c(=O)c2c(ncn2CCO)n(C)c1=O" — outcome as called in the assay?
A) n

Q) Lab log entry: CCCC(=O)Nc1ccc(OCC(O)CNC(C)C)c(C(C)=O)c1 (stereo not drawn) — outcome as called in the assay?
A) n

Q) Lab log entry: "COc1cc(Cc2cnc(N)nc2N)cc(OC)c1OC" — outcome as called in the assay?
A) n

Q) Lab log entry: "COc1cc(OC)c2c(OC)c(-c3ccc4c(c3)OCO4)c(=O)oc2c1" — outcome as called in the assay?
A) n

Q) Lab log entry: "Cn1c(=O)[nH]c2ncn(C)c2c1=O" — outcome as called in the assay?
A) n

Q) Lab log entry: CC(=O)NC1C(O)OC(COS(=O)(=O)O)C(OC2OC(C(=O)O)C(OC3OC(CO)C(OC4OC(C(=O)O)C(O)C(O)C4OS(=O)(=O)O)C(OS(=O)(=O)O)C3NS(=O)(=O)O)C(O)C2OS(=O)(=O)O)C1O (stereo not drawn) — outcome as called in the assay?
A) n

Q) Lab log entry: "CCCc1ncc(C[n+]2ccccc2C)c(N)n1" — outcome as called in the assay?
A) n

Q) Lab log entry: "C=C[C@H]1CN2CC[C@H]1C[C@H]2[C@H](O)c1ccnc2ccccc12" — outcome as called in the assay?
A) n
